Cited source for all entries: paper PMC11108860

system: K562 cells; assay: Cell viability assay; format: cell-based, human; conditions: Homo sapiens, K562, 48 h, read-out: IC50 (cell viability)
Measurement kind: IC50 (µM)
Answer in µM, number only, no unit symbol.

Q. Give me measured IC50, please, for this molecule: O=C(O[C@@H]1Cc2c(O)cc(O)cc2O[C@@H]1c1cc(O)c(O)c(O)c1)c1cc(O)c(O)c(O)c1 [EGCG, (−)-epigallocatechin gallate]
A. 146
